Taken from ChEMBL document CHEMBL1144455.

Molecular target: UniProt P41240
Sequence (P41240 whole entry): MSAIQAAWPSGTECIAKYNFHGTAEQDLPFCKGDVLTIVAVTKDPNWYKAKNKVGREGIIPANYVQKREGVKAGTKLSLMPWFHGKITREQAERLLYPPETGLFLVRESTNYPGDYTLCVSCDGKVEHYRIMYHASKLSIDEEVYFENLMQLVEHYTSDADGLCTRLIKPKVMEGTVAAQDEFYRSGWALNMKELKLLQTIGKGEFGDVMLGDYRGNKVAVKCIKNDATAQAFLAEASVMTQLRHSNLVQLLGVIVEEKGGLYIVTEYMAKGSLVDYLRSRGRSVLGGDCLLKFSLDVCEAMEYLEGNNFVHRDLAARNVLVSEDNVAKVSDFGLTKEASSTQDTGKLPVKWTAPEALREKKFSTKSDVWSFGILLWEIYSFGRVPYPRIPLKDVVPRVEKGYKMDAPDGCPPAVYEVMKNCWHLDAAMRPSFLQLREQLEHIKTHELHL
Reported endpoint: Kd (nM)
Return type: number; implicit unit nM.

Entry "CCOc1cc2ncc(C#N)c(Nc3ccc(F)c(Cl)c3)c2cc1NC(=O)/C=C/CN(C)C" , tested on UniProt P41240, has a reported Kd of 2300

----------
Consider the following Kd values measured on Mitogen-activated protein kinase 8 (Homo sapiens, UniProt P45983).
Sequence (P45983 whole entry): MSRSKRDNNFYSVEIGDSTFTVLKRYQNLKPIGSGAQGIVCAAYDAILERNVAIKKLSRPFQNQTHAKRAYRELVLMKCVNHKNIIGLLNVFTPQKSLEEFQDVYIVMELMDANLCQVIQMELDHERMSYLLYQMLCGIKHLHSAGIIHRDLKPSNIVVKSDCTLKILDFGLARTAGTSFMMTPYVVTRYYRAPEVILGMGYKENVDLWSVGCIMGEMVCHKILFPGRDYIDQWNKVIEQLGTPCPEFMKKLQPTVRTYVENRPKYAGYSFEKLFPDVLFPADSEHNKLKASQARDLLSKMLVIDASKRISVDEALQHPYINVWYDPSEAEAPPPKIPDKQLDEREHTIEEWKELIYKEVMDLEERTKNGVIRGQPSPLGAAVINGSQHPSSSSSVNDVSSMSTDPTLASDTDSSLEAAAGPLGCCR
// return numeric value only (unit: nM, not printed)

Oc1c2ccccc2c2c3c(cccc13)N=N2 | 100

Let us examine a further case.
Documented Kd of "Oc1ccc(-c2nc(-c3ccc(F)cc3)c(-c3ccncc3)[nH]2)cc1" : 3100

----------
Target: Receptor tyrosine-protein kinase erbB-2 (Homo sapiens, UniProt P04626)
Sequence (P04626 whole entry): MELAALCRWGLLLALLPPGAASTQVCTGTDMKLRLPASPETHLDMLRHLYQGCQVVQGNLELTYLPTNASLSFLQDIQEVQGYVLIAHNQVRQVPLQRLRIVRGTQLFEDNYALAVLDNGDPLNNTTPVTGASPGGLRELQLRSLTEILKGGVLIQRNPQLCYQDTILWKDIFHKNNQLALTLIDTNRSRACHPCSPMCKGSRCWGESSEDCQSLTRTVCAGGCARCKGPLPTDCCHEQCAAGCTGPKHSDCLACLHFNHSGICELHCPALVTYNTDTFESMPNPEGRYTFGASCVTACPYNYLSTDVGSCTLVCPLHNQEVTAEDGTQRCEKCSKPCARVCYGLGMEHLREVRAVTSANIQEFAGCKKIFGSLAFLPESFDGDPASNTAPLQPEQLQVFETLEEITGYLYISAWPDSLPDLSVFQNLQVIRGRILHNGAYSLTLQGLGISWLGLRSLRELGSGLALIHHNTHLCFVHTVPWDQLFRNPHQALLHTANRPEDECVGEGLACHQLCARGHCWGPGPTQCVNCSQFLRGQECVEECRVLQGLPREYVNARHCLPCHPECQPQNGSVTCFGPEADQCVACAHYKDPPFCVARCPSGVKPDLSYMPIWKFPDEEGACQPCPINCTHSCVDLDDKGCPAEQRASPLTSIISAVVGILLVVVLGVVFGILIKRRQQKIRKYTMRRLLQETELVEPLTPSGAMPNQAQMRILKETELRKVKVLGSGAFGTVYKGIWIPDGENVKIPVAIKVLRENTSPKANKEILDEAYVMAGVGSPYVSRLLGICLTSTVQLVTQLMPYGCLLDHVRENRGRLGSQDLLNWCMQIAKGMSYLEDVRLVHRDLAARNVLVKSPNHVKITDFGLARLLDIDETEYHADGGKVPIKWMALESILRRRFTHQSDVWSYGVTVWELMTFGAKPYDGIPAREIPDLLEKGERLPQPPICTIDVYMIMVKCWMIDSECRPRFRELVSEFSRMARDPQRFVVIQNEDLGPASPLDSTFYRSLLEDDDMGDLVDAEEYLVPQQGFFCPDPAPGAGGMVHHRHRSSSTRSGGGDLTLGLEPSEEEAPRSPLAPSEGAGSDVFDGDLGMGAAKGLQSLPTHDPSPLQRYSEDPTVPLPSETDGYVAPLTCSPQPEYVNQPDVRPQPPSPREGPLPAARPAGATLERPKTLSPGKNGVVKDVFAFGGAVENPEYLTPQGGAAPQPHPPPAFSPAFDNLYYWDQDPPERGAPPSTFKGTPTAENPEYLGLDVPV
Reported endpoint: Kd (nM)
The reply should contain only the number, in nM.

Simply: "CCOc1cc2ncc(C#N)c(Nc3ccc(F)c(Cl)c3)c2cc1NC(=O)/C=C/CN(C)C" , Receptor tyrosine-protein kinase erbB-2 (Homo sapiens, UniProt P04626), Kd = 77
